molecular target: Human liver cathepsin D (Homo sapiens, UniProt P07339); construct: purchased Athens Research and Technology, Athens, Ga; host or cells: human liver; test: Cathepsin D inhibition, fluorometric assay (Tables 5 and 6); format: biochemical
Sequence (P07339 169-412 limits assumed): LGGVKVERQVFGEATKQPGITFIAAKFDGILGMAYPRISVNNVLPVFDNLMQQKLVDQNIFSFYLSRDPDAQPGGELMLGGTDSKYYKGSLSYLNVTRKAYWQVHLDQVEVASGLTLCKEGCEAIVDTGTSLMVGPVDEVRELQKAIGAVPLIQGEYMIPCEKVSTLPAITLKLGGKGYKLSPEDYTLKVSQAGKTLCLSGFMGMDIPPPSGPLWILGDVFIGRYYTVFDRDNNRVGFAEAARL
Sequence (P07339 65-161 limits assumed): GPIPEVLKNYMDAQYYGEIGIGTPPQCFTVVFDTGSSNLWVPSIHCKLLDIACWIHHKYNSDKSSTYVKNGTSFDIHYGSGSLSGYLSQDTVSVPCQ
# label = y if IC50 < 8 µM else n

Answered examples (10):
CCCCCCCCOc1ccc(C=C2SC(=S)NC2=O)cc1OC [Example 69] : y
O=C1NC(=S)SC1=Cc1cccc(Oc2ccccc2)c1 [Example 77] : y
CN1C(=O)C(=Cc2ccc(O)c(C(C)(C)C)c2)SC1=S [Example 92] : y
CCCCCCCOc1ccc(C=C2SC(=S)N(N(C)C)C2=O)cc1OC [Example 81] : n
CCCCCCCOc1ccc(C=C2SC(=S)N(N)C2=O)cc1OC [Example 80] : n
CCCCCOc1ccc(C=C2SC(=S)NC2=O)cc1 [Example 47] : y
CCCCCCOc1ccc(C=C2SC(=S)NC2=O)cc1OC [Example 68] : n
O=C1NC(=S)SC1=Cc1ccc(Oc2ccccc2)cc1 [Example 5] : y
CCCCCCCOc1ccc(C=C2SC(=S)NC2=O)cc1OC [Example 31] : y
CC(=C1SC(=S)NC1=O)c1cccc(Oc2ccccc2)c1 [Example 78] : n

Does the reported IC50 of CN1C(=O)C(=Cc2cc(C(C)(C)C)c(O)c(C(C)(C)C)c2)SC1=S [Example 85] stay below 8 µM?
n

Further, for CCOc1cc(C=C2SC(=S)N(N(C)C)C2=O)ccc1O [Example 90] ?
y

Next molecule up: COc1c(C(C)(C)C)cc(C=C2SC(=S)NC2=O)cc1C(C)(C)C [Example 87]
y

Queued: CCOc1cc(C=C2SC(=S)N(C)C2=O)ccc1O [Example 88]
n

And what about the molecule O=C1NC(=S)SC1=Cc1ccc2ccccc2c1 [Example 35] ?
n

Cool, now CCCCCOc1ccc(C=C2SC(=S)N(CC(=O)O)C2=O)cc1OCCCCC [Example 91]
n

Input CCCCOc1ccc(C=C2SC(=S)NC2=O)cc1OCC [Example 56]
n

====

test system: blood glucose level; assay: Hypoglycemic activity in obese diabetic mice (Table 1); format: in vivo, male viable yellow obese-diabetic mice; conditions: Mus musculus, ip, 2 h, 50 mg/kg, intraperitoneal, 2 hrs; read-out: Percent of Initial Blood Glucose Level After 2 hrs.
parameter_measured: response vs control in vivo at 50 mg/kg
Record the result as a number with its unit.

Solved entries (count: 3):
CCCCOc1ccc(C=C2SC(=S)NC2=O)cc1OCC : 78%
CCCOc1ccc(C=C2SC(=S)NC2=O)cc1OCC : 83%
Cc1cccc(C=C2SC(=S)NC2=O)c1 : 91%

// each compound listed below needs its response vs control in vivo at 50 mg/kg
1. O=C1NC(=S)SC1=Cc1cc(Cl)c(O)c(Cl)c1
2. O=C1NC(=S)SC1=Cc1ccncc1
3. O=C1NC(=S)SC1=Cc1ccc(Cl)c(Cl)c1
4. C=CCN1C(=O)C(=Cc2ccc(O)c(OC)c2)SC1=S
5. O=C1NC(=S)SC1=Cc1ccccc1O

81%
94%
81%
78%
80%

Would you mind listing response vs control in vivo at 50 mg/kg for each of the following compounds?
1. CCCOc1ccc(C=C2SC(=S)NC2=O)cc1OCCC
2. CCOc1ccc(C=C2SC(=S)NC2=O)cc1OC
3. O=C1NC(=S)SC1=Cc1ccco1
4. COc1ccc(C=C2SC(=S)NC2=O)c(OC)c1
5. O=C1NC(=S)SC1=Cc1ccc([N+](=O)[O-])c(O)c1

1. 89%
2. 70%
3. 73%
4. 90%
5. 92%

Kindly give each listed record's response vs control in vivo at 50 mg/kg.
1. COc1ccc(C(=C2SC(=S)NC2=O)c2ccccc2)cc1
2. CCOc1cc(C=C2SC(=S)NC2=O)ccc1O
3. CCCCCOc1ccc(C=C2SC(=S)NC2=O)cc1OC
4. O=C1NC(=S)SC1=Cc1ccc(C(=O)O)cc1
5. O=C1NC(=S)SC1=Cc1ccc(O)cc1
6. CCCCCCCOc1ccc(C=C2SC(=S)NC2=O)cc1OC
7. O=C1NC(=S)SC1=Cc1cccs1

1. 99%
2. 75%
3. 76%
4. 89%
5. 94%
6. 76%
7. 84%

Each compound below has a reported value. Please supply its response vs control in vivo at 50 mg/kg.
1. O=C1NC(=S)SC1=C(c1ccccc1)c1ccccc1
2. CCC(C)c1cc(C=C2SC(=S)N(CC(=O)O)C2=O)cc(C(C)CC)c1O (stereo not shown)

1. 91%
2. 62%
